The measurements presented in this section are drawn from ChEMBL document CHEMBL3507680.

Listed next: entries and their corresponding cytotoxicity at 70.5 h.
# ASSAY NOTES: Human HepG2 cell viability assay in 384 well format
# Type: toxicity, cell-based
# Design: dose 125 nL, time 70.5 hour; concentration not given beside the values
# ASSAY CONTEXT: HepG2 cells, read-out: Inhibition
# number only, unit % dropped from output

Solved entries:
| COMPOUND | cytotoxicity at 70.5 h (%) |
| --- | --- |
| CCOC1COC2(CCN(Cc3cccnc3OC)CC2)C1 (stereo not drawn) | -1.38 |
| CSCCc1c(-c2ccccc2)ncn1[C@H]1C[C@@H](C(=O)O)N(C)C1 | -13.3 |
| CCn1cc(NC(=O)NCC(c2cccc(OC)c2)N(C)C)cn1 (stereo not drawn) | -8.98 |
| CN1CCN(C2CCOCC2)CC12CCC(=O)N(CC1CC1)CC2 (stereo not drawn) | -6.33 |
| CN1CC[C@]2(CN(CC3CCOCC3)C[C@H]2c2ccccc2)C1=O | -7.31 |
| O=C(c1cc2c([nH]c1=O)CCC2)N1CCCC1c1ccccn1 (stereo not drawn) | -2.83 |
| CC(C)Cc1cc(C(=O)NC(C)(C)c2nnc(N)s2)n(C)n1 | -6.76 |
| Cc1ccc(C(=O)N2CCC(Oc3ccc(C)c(C)c3)CC2)c(=O)[nH]1 | -2.32 |
| COCCN1C(=O)[C@H]2CC[C@@H]1CN(C(=O)Cc1ccc(O)c(Cl)c1)C2 | 16.7 |
| CCN(Cc1ccc(C(C)=O)cc1)CC1CCOCC1 | 20.6 |

Q) What does the data say about its cytotoxicity at 70.5 h? Entry: CC(C)c1nnc(CNCC2CCCN2c2cccnn2)o1 (stereo not drawn)
A) -6.87

Q) What does the data say about its cytotoxicity at 70.5 h? Entry: COC(=O)CC1CCCCN1CC(=O)Nc1ccc(F)cc1Cl (stereo not drawn)
A) 21.6

Q) What does the data say about its cytotoxicity at 70.5 h? Entry: COCCn1ccc2ccc(C(=O)N3CCN(C(C)=O)CC3)cc21
A) -13.7

Q) What does the data say about its cytotoxicity at 70.5 h? Entry: Cn1c(=O)[nH]c(=O)n2c(CC(=O)Nc3ccccc3)cnc12
A) -15.7

Q) What does the data say about its cytotoxicity at 70.5 h? Entry: CCC(C)Oc1ccccc1CN1Cc2ncccc2C1=O (stereo not drawn)
A) 0.0852

Q) What does the data say about its cytotoxicity at 70.5 h? Entry: Cn1ccc(C(=O)NCc2cccc(N3CCCCC3=O)c2)cc1=O
A) -4.99

Q) What does the data say about its cytotoxicity at 70.5 h? Entry: CN(CCc1ccncc1)Cc1c(C2CCCC2)[nH]c2ncccc12
A) -1.56

Q) What does the data say about its cytotoxicity at 70.5 h? Entry: CCn1cc(NC(=O)NCC(O)c2ccccc2)cn1 (stereo not drawn)
A) 2.91

Q) What does the data say about its cytotoxicity at 70.5 h? Entry: O=C(CC1CCCCC1)NC1CCCc2nc(N3CCOCC3)ncc21 (stereo not drawn)
A) 0.0844

Q) What does the data say about its cytotoxicity at 70.5 h? Entry: CN(Cc1cccc2ncccc12)C(=O)CCC(F)(F)F
A) 27.3

Q) What does the data say about its cytotoxicity at 70.5 h? Entry: CCN1CCN(S(=O)(=O)N2CCCCCC2)[C@H]2CS(=O)(=O)C[C@H]21
A) 30

Q) What does the data say about its cytotoxicity at 70.5 h? Entry: COC(CNC(=O)CNC(=O)c1ccccc1)c1cccc(Cl)c1 (stereo not drawn)
A) -2.92

Q) What does the data say about its cytotoxicity at 70.5 h? Entry: COc1cccc(NC(=O)N(CCC(F)(F)F)C[C@H](O)CO)c1
A) -4.42
